tested.target: c-Kit (Homo sapiens, UniProt P10721)
Sequence (P10721 26-976): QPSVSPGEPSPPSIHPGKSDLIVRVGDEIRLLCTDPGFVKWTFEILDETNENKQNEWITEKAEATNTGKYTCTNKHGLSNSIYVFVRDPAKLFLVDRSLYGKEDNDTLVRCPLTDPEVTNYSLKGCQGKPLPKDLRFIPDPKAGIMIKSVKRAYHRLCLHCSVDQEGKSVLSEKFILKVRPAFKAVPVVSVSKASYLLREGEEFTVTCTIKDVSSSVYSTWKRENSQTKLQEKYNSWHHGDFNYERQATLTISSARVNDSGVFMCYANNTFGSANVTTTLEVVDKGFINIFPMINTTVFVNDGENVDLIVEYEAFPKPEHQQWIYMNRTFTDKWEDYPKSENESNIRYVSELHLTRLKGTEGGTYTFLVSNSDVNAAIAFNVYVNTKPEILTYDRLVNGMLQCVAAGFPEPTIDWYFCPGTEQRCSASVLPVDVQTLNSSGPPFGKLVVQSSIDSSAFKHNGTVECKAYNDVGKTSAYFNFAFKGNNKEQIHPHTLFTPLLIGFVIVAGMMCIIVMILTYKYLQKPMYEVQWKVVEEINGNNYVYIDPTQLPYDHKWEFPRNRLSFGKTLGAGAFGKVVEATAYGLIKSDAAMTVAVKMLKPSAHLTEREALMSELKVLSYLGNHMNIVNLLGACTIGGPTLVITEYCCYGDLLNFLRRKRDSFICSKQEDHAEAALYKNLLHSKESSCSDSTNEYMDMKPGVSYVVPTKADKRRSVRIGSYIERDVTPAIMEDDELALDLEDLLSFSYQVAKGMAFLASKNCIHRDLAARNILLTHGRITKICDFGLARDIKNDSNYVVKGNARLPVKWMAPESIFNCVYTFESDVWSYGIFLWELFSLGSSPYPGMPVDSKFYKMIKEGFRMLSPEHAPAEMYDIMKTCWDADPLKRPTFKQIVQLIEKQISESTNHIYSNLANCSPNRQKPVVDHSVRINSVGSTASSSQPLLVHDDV
measurement.protocol: c-Kit biochemical assay (AlphaScreen)
pIC50: −log10 of the molar value.
Measured pIC50 values are reported for all entries that follow.

molecule	assay.result
CN1CCN(c2ccc3[nH]c(-c4cc(-c5ccc(NC(=O)Nc6ccc(F)cc6F)cc5)[nH]n4)nc3c2)CC1 [Entry 32]	> 7.30
Oc1ccc(/C=C/c2cc(-c3cccnc3)n[nH]2)cc1 [Entry 69]	5.30 to 6.30
COc1cccc(-c2cc(/C=C/c3ccc(O)cc3)n[nH]2)c1 [Entry 70]	5.30 to 6.30

Lab note: CCN1CCN(c2ccc3[nH]c(-c4cc(-c5ccc(NC(=O)Nc6cccc(C(F)(F)F)c6)cc5)[nH]n4)nc3c2)CC1 [Entry 4] gave pIC50 of > 7.30

Lab note: Oc1ccc2cc(-c3cc(/C=C/c4ccccc4)[nH]n3)oc2c1 [Entry 73] gave pIC50 of 5.30 to 6.30

Lab note: COc1cc(/C=C/c2cc(/C=C/c3ccc(Cl)cc3)n[nH]2)ccc1O [Entry 48] gave pIC50 of 6.30 to 7.30

Lab note: Oc1ccc(/C=C/c2cc(-c3cc4cc(Cl)ccc4o3)n[nH]2)cc1 [Entry 63] gave pIC50 of 5.30 to 6.30

Lab note: c1ccc(-c2cc(-c3nc4ccccc4[nH]3)n[nH]2)cc1 [Entry 75] gave pIC50 of 5.30 to 6.30

Lab note: Oc1ccc(/C=C/c2cc(-c3cc4ccccc4s3)n[nH]2)cc1 [Entry 49] gave pIC50 of 6.30 to 7.30

Lab note: Cc1ccc(F)cc1NC(=O)Nc1ccc(-c2cc(-c3nc4ccc(N5CCN(C)CC5)cc4[nH]3)n[nH]2)cc1 [Entry 38] gave pIC50 of > 7.30

---

Measured pIC50 values are reported for all entries that follow.
tested.target: flt-3 (Homo sapiens, UniProt P36888)
Sequence (P36888 571-993): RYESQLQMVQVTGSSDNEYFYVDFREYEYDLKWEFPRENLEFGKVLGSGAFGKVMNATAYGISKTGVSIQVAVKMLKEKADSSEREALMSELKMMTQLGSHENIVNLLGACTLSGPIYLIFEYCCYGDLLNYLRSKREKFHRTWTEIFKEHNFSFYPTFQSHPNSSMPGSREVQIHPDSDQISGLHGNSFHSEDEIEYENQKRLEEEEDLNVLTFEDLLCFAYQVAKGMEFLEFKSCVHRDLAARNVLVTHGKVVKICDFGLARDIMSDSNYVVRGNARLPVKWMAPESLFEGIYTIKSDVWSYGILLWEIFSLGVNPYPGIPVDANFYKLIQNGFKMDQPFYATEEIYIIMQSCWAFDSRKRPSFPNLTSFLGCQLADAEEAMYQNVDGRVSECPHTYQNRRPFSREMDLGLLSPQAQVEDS
pIC50: −log10 of the molar value.

structure.notation	pIC50
Oc1ccc(/C=C/c2cc(-c3cccc(-c4ccccc4)c3)[nH]n2)cc1	5.30 to 6.30

Lab note: `Oc1ccc(/C=C/c2cc(-c3cc4ccccc4o3)n[nH]2)cc1` gave pIC50 of 6.30 to 7.30

---

Measured pIC50 values are reported for all entries that follow.
tested.target: c-Kit (Homo sapiens)
measurement.protocol: c-Kit biochemical assay (AlphaScreen)
pIC50: −log10 of the molar value.

Solved entries (count: 5):
compound	pIC50
CN1CCN(c2ccc3[nH]c(-c4cc(-c5ccc(NC(=O)Nc6ccc(Oc7ccccc7)cc6)cc5)[nH]n4)nc3c2)CC1 [Entry 9]	> 7.30
CC(C)(C)OC(=O)Nc1ccc(-c2cc(-c3nc4ccccc4[nH]3)n[nH]2)cc1 [Entry 52]	6.30 to 7.30
CN1CCN(c2ccc3[nH]c(-c4cc(-c5ccc(NC(=O)Nc6ccccc6F)cc5)[nH]n4)nc3c2)CC1 [Entry 35]	> 7.30
Oc1ccc(/C=C/c2cc(-c3cccc(F)c3)[nH]n2)cc1 [Entry 74]	5.30 to 6.30
CN1CCN(c2ccc(-c3cc(-c4ccc(NC(=O)Nc5ccc(Oc6ccccc6)cc5)cc4)n[nH]3)cc2)CC1 [Entry 28]	> 7.30

Kindly consider the entry below.
Lab note: CCN1CCN(c2ccc3[nH]c(-c4cc(-c5ccc(NC(=O)Nc6ccc(Cl)c(C(F)(F)F)c6)cc5)[nH]n4)nc3c2)CC1 [Entry 2] gave pIC50 of > 7.30

---

IC50 tested on flt-3 (Homo sapiens, UniProt P36888): recorded values

structure.notation	recorded.metric	assay.result
CN1CCN(c2ccc(-c3cc(-c4ccc(NC(=O)C(=O)NCCc5ccccc5)cc4)[nH]n3)cc2)CC1	IC50	> 5000 nM
CC(C)(C)OC(=O)Nc1ccc(-c2cc(-c3nc4ccccc4[nH]3)n[nH]2)cc1	IC50	500 to 5000 nM
CN1CCN(c2ccc(-c3cc(/C=C/c4ccc(O)cc4)[nH]n3)cc2)CC1	IC50	< 50 nM
O=C(Nc1ccccc1)Nc1ccc(-c2cc(-c3ccccc3)n[nH]2)cc1	IC50	500 to 5000 nM
CN1CCN(c2ccc3[nH]c(-c4cc(-c5ccc(NC(=O)Nc6ccc(F)cc6F)cc5)[nH]n4)nc3c2)CC1	IC50	< 50 nM

Lab note: `O=C(Nc1ccc(-c2cc(-c3ccccc3)n[nH]2)cc1)Nc1ccc(Cl)c(C(F)(F)F)c1` gave IC50 of 50 to 500 nM
